Would you mind telling me the reported melting point of each entry?

Some solved entries appear below for comparison.
MOLECULE | PARAMETER | RECORDED VALUE
Cc1nc2c3c(ccc2n1C)C(=O)C(OC(=O)C(C)(C)C)C(c1ccccc1)O3 (stereo not given) | melting point | 255 °C
CC1(C)CCC(C)(C)c2cc(NC(=O)c3ccc(C(=O)O)cn3)ccc21 | melting point | 206 to 207 °C

Report melting point for every entry below.
1. O=C(NCCO)C(O)C(Oc1ccccc1[N+](=O)[O-])c1ccccc1 (stereo not given)
2. CCC1(C)CC(NC(=O)c2ccccc2)C(C)C(C)(CC)N1Cc1ccccc1 (stereo not given)
3. CCC(C)(C)C(O)(C#Cc1cccnc1)c1cncnc1 (stereo not given)
4. FC(F)Oc1ccc2c(Cc3c(Cl)cncc3Cl)nnc(N3CCOCC3)c2c1
5. Cc1sc2c(c1C)C(c1ccc(Cl)cc1)=NC(CC(=O)Nc1ncccn1)c1nnc(C)n1-2 (stereo not given)
6. N=C(N)NCCc1ccc(NC(=O)CC(c2ccccc2)(c2ccccc2)c2ccccc2)cc1

Result:
1: 166 to 188 °C; 2: 173 to 176 °C; 3: 170 to 172 °C; 4: 129 to 131 °C; 5: 251 to 253 °C; 6: 213 to 215 °C

FYI, the data here is from a melting point compilation (Tetko et al.; mined from patent text by program, amines drawn as free bases though some values may be those of a salt).
